Parameter: log10 of IC50. Scope: all listed entries.
Tested target: human TLR7 (Homo sapiens, UniProt Q9NYK1)
Sequence (Q9NYK1 27-1049): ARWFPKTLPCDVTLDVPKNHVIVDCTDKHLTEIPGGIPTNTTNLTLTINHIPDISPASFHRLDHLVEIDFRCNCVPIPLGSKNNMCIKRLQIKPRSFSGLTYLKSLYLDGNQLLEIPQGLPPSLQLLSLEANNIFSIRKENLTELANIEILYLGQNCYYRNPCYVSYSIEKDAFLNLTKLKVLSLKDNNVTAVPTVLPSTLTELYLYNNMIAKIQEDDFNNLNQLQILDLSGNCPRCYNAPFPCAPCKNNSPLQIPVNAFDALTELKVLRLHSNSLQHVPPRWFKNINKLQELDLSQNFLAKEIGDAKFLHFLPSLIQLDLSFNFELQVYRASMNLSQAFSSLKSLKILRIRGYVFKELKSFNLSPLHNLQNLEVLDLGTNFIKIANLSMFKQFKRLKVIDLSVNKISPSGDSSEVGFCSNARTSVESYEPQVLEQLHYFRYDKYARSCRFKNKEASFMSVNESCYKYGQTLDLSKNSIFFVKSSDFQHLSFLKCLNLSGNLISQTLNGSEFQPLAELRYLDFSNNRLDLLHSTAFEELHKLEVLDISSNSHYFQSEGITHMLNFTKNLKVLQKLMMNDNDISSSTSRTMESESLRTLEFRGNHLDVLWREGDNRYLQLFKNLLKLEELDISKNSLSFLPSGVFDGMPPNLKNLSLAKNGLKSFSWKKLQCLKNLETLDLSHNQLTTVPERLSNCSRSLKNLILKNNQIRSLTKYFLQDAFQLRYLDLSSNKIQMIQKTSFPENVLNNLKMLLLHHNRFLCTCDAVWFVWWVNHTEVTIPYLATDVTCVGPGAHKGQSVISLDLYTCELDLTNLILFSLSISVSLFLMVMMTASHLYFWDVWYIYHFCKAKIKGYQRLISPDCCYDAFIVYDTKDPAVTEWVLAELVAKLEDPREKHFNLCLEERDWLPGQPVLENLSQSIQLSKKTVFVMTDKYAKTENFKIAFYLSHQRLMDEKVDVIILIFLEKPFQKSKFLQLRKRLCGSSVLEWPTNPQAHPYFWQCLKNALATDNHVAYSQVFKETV
Protocol notes: HEK293-Blue-hTLR-7 cells assay
Protocol conditions: HEK293-Blue-hTLR7 cells, R848 stimulation, 20 hrs, SEAP reporter; read-out: HEK/hTLR7 IC50
Measured attribute: log10 of IC50 (log10 of the value in nM)

Compound: C[C@@H]1CN(c2ccc(C#N)n3nccc23)C[C@@H]2c3ccc(N4CC5CNCC(C4)O5)cc3CN12
Measured attribute: log10 of IC50
Measured value: 1.16
--
Compound: C[C@@H]1CN(c2ccc(C#N)c3ncccc23)C[C@@H]2c3ccc(NC[C@@H]4C[C@H](F)CN4)cc3CN12
Measured attribute: log10 of IC50
Measured value: 0.95
--
Compound: CO[C@H]1CCN(c2ccc3c(c2)CN2[C@H](C)CN(c4ccc(C#N)n5nccc45)C[C@H]32)C[C@H]1N
Measured attribute: log10 of IC50
Measured value: 1.35
--
Compound: C[C@@H]1CN(c2ccc(C#N)n3ncc(F)c23)C[C@@H]2c3ccc(N4C[C@H](N)[C@@](C)(O)C4)cc3CN12
Measured attribute: log10 of IC50
Measured value: 1.06
--
Compound: CO[C@@H]1CN(c2ccc3c(c2)CN2[C@H](C)CN(c4ccc(C#N)n5nccc45)C[C@H]32)C[C@H]1N
Measured attribute: log10 of IC50
Measured value: 1.14
--
Compound: C[C@@H]1CN(c2ccc(C#N)c3ncccc23)C[C@@H]2c3ccc(N4C[C@H](N)[C@@H](O)C4)cc3CN12 [Example 40A]
Measured attribute: log10 of IC50
Measured value: 0.57
--
Compound: CN[C@@H]1CN(c2ccc3c(c2)CN2[C@H](C)CN(c4ccc(C#N)c5ncccc45)C[C@H]32)C[C@H]1O
Measured attribute: log10 of IC50
Measured value: 0.60
--
Compound: C[C@@H]1CN(c2ccc(C(F)(F)F)c3nccnc23)C[C@@H]2c3ccc(N[C@H]4CNC[C@H]4F)cc3CN12
Measured attribute: log10 of IC50
Measured value: 1.10
--
Compound: CO[C@H]1CN(c2ccc3c(c2)CN2C3CN(c3ccc(C#N)c4ncccc34)C[C@H]2C)C[C@@H]1N (single isomer, unassigned) [Example 16A]
Measured attribute: log10 of IC50
Measured value: 0.72
--
Compound: C[C@@H]1CN(c2ccc(C#N)c3ncccc23)C[C@@H]2c3ccc(N4C[C@@H](N)[C@](C)(O)C4)cc3CN12 [Example 45A]
Measured attribute: log10 of IC50
Measured value: 0.54
--
Compound: CO[C@@H]1CNC[C@@H]1Nc1ccc2c(c1)CN1[C@H](C)CN(c3ccc(C#N)c4ncccc34)C[C@H]21
Measured attribute: log10 of IC50
Measured value: 0.51
--
Compound: C[C@@H]1CN(c2ccc(C#N)c3ncccc23)C[C@@H]2c3ccc(N[C@H]4CNCCOC4)cc3CN12 [Example 56B]
Measured attribute: log10 of IC50
Measured value: 0.65
--
Compound: C[C@@H]1CN(c2ccc(Cl)c3ncccc23)C[C@@H]2c3ccc(N[C@H]4CNC[C@H]4F)cc3CN12
Measured attribute: log10 of IC50
Measured value: 0.88
--
Compound: C[C@@H]1CN(c2ccc(C#N)c3ncccc23)C[C@@H]2c3ccc(N4CCNC[C@H](O)C4)cc3CN12 [Example 53A]
Measured attribute: log10 of IC50
Measured value: 0.59
--
Compound: [2H]c1ccc2c(N3C[C@@H](C)N4Cc5cc(N6CC7(CNCCO7)C6)ccc5[C@H]4C3)ccc(C#N)c2n1
Measured attribute: log10 of IC50
Measured value: 0.46
--
Compound: C[C@@H]1CN(c2ccc(C#N)n3nccc23)C[C@@H]2c3ccc(N4CC[C@@H](N)C4)cc3CN12
Measured attribute: log10 of IC50
Measured value: 1.51
--
Compound: C[C@@H]1CN(c2ccc(C#N)c3ncccc23)C[C@@H]2c3ccc(N4CCNCC(O)C4)cc3CN12 (stereo partly shown)
Measured attribute: log10 of IC50
Measured value: 0.76
--
Compound: C[C@@H]1CN(c2ccc(C#N)c3ncccc23)C[C@@H]2c3ccc(N4CCOC5(CNC5)C4)cc3CN12
Measured attribute: log10 of IC50
Measured value: 0.53
--
Compound: CO[C@@H]1CN(c2ccc3c(c2)CN2[C@H](C)CN(c4ccc(C#N)n5ncc(F)c45)C[C@H]32)C[C@H]1N
Measured attribute: log10 of IC50
Measured value: 0.78
--
Compound: C[C@@H]1CN(c2ccc(C#N)c3ncccc23)C[C@@H]2c3ccc(N4C[C@H](N)[C@@H](F)C4)cc3CN12
Measured attribute: log10 of IC50
Measured value: 0.65
